- target.system: USP7 (Homo sapiens)
- Construct: The USP7 construct was PCR amplified and cloned into a pFLAG-CMV-6a vector (Sigma-Aldrich) with an N-terminal FLAG tag; made in house; host or cells: HEK293T
- Sequence (Q93009 whole entry): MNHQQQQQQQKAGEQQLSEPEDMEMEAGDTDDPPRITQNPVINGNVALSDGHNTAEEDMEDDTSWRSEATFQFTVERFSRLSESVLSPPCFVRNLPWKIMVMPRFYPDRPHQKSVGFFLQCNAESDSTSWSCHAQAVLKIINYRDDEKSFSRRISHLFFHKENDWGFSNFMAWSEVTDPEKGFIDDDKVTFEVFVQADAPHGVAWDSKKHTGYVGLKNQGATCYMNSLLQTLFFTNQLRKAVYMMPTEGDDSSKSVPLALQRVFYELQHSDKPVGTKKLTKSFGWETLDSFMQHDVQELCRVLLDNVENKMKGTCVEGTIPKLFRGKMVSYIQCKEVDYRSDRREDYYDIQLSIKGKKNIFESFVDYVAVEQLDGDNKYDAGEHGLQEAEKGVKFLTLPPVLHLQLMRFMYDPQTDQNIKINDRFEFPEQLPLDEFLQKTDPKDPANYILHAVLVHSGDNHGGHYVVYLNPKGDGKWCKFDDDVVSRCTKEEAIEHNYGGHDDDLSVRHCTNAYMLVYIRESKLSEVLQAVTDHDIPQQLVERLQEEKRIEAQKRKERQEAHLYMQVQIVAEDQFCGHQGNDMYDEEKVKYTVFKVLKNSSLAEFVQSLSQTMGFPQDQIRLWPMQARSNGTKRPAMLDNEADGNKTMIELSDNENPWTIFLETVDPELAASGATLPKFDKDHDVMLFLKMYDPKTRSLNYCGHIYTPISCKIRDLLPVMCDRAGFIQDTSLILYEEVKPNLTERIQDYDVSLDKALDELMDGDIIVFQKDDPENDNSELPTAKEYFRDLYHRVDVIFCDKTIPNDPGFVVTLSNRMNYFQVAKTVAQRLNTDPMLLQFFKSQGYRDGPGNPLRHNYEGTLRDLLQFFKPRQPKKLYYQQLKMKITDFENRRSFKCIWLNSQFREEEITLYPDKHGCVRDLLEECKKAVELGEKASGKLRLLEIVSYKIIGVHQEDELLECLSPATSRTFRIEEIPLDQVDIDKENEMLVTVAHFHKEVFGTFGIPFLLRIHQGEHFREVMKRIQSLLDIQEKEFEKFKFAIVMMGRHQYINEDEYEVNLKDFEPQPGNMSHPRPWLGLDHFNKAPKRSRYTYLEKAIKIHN
- protocol.notes: USP7 biochemical IC50 assay (fluorescence polarisation, TAMRA labelled peptide linked to ubiquitin via an iso-peptide bond)
- measurement.parameters: 30 min pre-incubation of enzyme and compound, read after 2 hr incubation at room temperature, read-out: IC50 range
pIC50: −log10 of the molar value.
Assignment: determine reported pIC50 for the given compounds.

Provide pIC50 value for the following compound: CC(=O)Nc1nc2c(c(-c3cccc(OC(F)(F)F)c3)n1)CN(C#N)C2 5.00 to 6.00

Input N#Cc1cc(F)c(-c2cc(C#N)cc3c2CN(C#N)C3)c(C(N)=O)c1 , output reported pIC50. 5.00 to 6.00

Report pIC50 for N#CN1Cc2cc(NC(=O)C3CCS(=O)(=O)CC3)cc(-c3ccccc3)c2C1 5.00 to 6.00

Answer with the recorded pIC50 for the compound listed here: CN1CCCC(CN(C)c2nc3c(c(N4CCc5cccnc5C4)n2)CN(C#N)C3)C1 (centres unmarked) 5.00 to 6.00

For the compound N#Cc1ccc(-c2cccc3c2CN(C#N)C3)c(C(F)(F)F)c1 , give its reported pIC50. 5.00 to 6.00

For the compound CN(C)Cc1cc2c(c(-c3ccccc3)c1)CN(C#N)C2 , give its measured pIC50 value. 5.00 to 6.00

For the compound CN(C)S(=O)(=O)c1ccccc1-c1cccc2c1CN(C#N)C2 , give its reported pIC50. 5.00 to 6.00

For the compound COCCn1cc(-c2nc3c(c(N4CCc5ccccc5C4)n2)CN(C#N)C3)cn1 , give its measured pIC50 value. > 6.00

Given the compound CC(=O)c1ccccc1-c1cccc2c1CN(C#N)C2 , write its reported pIC50. 5.00 to 6.00

Report measured pIC50; entry is CC(=O)NCc1cc2c(c(-c3ccc(C#N)cc3)c1)CN(C#N)C2 5.00 to 6.00

Hello, please tell me recorded pIC50 for this one: N#CN1Cc2nc(N)nc(N3CCC(Oc4ccccc4)CC3)c2C1 4.52 to 5.00

Tell me pIC50 reported for N#CN1Cc2nc(NCc3ccccn3)cc(-c3ccc(F)cc3)c2C1 5.00 to 6.00

Give the reported pIC50 for this compound. CC(=O)Nc1cc(-c2ccc(F)cc2)c2c(n1)CN(C#N)C2 5.00 to 6.00

Specify measured pIC50 for CC(C)N1CCOC(C(=O)Nc2cc3c(c(-c4ccccc4)c2)CN(C#N)C3)C1 (centres unmarked) . > 6.00

Quickly give me recorded pIC50 for N#CN1Cc2cccc(-c3ccc(F)cc3C(N)=O)c2C1 5.00 to 6.00

Look up and report measured pIC50 for this entry: CCNc1nc2c(c(-c3ccccc3C(N)=O)n1)CN(C#N)C2 4.52 to 5.00

State, in one line, measured pIC50 of N#Cc1ccc(N2CCCC2=O)cc1-c1cccc2c1CN(C#N)C2 5.00 to 6.00

Provide only the value of recorded pIC50 for CN1CCOC(CN(C)c2nc3c(c(N4CCc5ccccc5C4)n2)CN(C#N)C3)C1 (centres unmarked) 5.00 to 6.00

Report measured pIC50; entry is N#CN1Cc2nc(-c3ccccc3)nc(N3CCCC3C(N)=O)c2C1 (centres unmarked) 4.52 to 5.00

Identify pIC50 associated with the compound CC1c2cccc(-c3ccc(Cl)cc3C(N)=O)c2CN1C#N (single isomer, unassigned) 4.52 to 5.00

Give pIC50 for CS(=O)(=O)Cc1cc2c(c(-c3ccccc3)c1)CN(C#N)C2 5.00 to 6.00

Specify pIC50 for CN1CCC(C(=O)Nc2ccc3c(c2)CN(C#N)C3)C1 (centres unmarked) and stop. 5.00 to 6.00

Read off the recorded pIC50 for CN1CCC[C@@H](C(=O)Nc2cc3c(c(-c4cccc(Cl)c4)c2)CN(C#N)C3)C1 5.00 to 6.00

Read off the recorded pIC50 for CS(=O)(=O)NCc1cc2c(c(-c3ccc(C#N)cc3)c1)CN(C#N)C2 5.00 to 6.00

Give the reported pIC50 for this compound. N#CN1Cc2nc(NCCc3ccccn3)nc(-c3ccccc3)c2C1 5.00 to 6.00

Retrieve pIC50 measured for N#Cc1ccc(-c2cc(NC3CCOCC3)cc3c2CN(C#N)C3)cc1 and print it. 5.00 to 6.00

For N#CN1Cc2cccc(NC(=O)c3cccc(NC(=O)C4CC4)c3)c2C1 , write its pIC50. 5.00 to 6.00

Please supply the value of reported pIC50 for the item N#CN1Cc2ncnc(N3Cc4ccccc4C3)c2C1 5.00 to 6.00

Given N#CN1Cc2nc(NCc3ncccn3)nc(-c3ccccc3)c2C1 , respond with its pIC50. 5.00 to 6.00
